molecular target: ATP-dependent translocase ABCB1 (Homo sapiens); experiment: Inhibition of P-gp in human K562/DOX cells assessed as drug level causing 50% increase in nuclear pirarubicin concentration incubated for 30 mins by spectroflurometry; conditions: read-out: I0.5
Sequence (P08183 whole entry): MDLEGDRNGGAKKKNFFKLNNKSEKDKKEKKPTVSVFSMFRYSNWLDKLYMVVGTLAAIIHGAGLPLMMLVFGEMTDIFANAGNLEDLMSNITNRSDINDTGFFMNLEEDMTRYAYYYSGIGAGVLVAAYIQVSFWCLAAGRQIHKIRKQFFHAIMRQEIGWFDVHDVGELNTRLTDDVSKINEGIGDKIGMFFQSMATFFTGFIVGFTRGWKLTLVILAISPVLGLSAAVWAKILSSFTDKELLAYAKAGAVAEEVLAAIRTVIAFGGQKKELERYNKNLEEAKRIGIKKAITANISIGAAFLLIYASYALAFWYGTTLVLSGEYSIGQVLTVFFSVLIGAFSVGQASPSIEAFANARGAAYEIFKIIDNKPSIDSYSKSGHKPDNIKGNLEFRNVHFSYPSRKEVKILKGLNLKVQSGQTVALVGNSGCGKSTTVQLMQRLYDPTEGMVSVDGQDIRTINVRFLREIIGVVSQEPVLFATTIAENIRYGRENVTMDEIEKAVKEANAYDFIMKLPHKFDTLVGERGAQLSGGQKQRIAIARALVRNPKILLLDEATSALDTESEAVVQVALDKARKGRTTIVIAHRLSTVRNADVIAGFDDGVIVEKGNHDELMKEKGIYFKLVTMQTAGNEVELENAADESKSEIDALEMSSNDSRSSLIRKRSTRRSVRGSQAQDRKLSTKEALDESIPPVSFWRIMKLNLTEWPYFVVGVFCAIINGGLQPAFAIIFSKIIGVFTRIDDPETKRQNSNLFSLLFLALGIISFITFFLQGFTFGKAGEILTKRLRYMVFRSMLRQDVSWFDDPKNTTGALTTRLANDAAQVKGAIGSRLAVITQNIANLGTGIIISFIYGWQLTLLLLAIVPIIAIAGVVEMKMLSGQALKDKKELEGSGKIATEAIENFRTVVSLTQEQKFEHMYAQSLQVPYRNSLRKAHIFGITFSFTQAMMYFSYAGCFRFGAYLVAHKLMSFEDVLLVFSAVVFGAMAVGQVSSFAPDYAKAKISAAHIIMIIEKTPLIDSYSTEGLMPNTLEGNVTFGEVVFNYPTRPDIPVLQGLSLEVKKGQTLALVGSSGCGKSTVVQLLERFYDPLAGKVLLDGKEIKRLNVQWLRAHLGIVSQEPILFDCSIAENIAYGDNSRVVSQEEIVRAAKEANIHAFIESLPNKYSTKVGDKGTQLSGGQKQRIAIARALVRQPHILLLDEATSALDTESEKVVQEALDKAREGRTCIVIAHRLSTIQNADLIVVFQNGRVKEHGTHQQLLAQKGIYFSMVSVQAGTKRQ
Friendly reminder: IC50 below 70 nM is Criterion met, at or above is Criterion not met.

{"smilesText": "COc1cc(/C=C/C(=O)OCCN(C)CCCCCCCCOC(=O)c2c3ccccc3cc3ccccc23)cc(OC)c1OC", "cat": "Criterion met"}
{"smilesText": "COc1cc(/C=C/C(=O)OCCCCCCN(C)CCCOC(=O)c2cc(OC)c(OC)c(OC)c2)cc(OC)c1OC", "cat": "Criterion not met"}
{"smilesText": "COc1cc(/C=C/C(=O)OCCCCCCN(C)CCCOC(=O)c2c3ccccc3cc3ccccc23)cc(OC)c1OC", "cat": "Criterion met"}
{"smilesText": "COc1cc(/C=C/C(=O)OCCCCCN(C)CCCCOC(=O)c2c3ccccc3cc3ccccc23)cc(OC)c1OC", "cat": "Criterion met"}
{"smilesText": "COc1cc(/C=C/C(=O)OCCCCCCCN(C)CCCOC(=O)c2c3ccccc3cc3ccccc23)cc(OC)c1OC", "cat": "Criterion met"}
{"smilesText": "COc1cc(/C=C/C(=O)OCCCCCCN(C)CCOC(=O)c2c3ccccc3cc3ccccc23)cc(OC)c1OC", "cat": "Criterion met"}
{"smilesText": "COc1cc(/C=C/C(=O)OCCCCCCCCN(C)CCOC(=O)c2cc(OC)c(OC)c(OC)c2)cc(OC)c1OC", "cat": "Criterion met"}
{"smilesText": "COc1cc(/C=C/C(=O)OCCCCCCCN(C)CCCOC(=O)c2cc(OC)c(OC)c(OC)c2)cc(OC)c1OC", "cat": "Criterion met"}
{"smilesText": "COc1cc(/C=C/C(=O)OCCCN(C)CCCCCCOC(=O)c2c3ccccc3cc3ccccc23)cc(OC)c1OC", "cat": "Criterion met"}
{"smilesText": "COc1cc(/C=C/C(=O)OCCCCCCN(C)CCCCOC(=O)c2cc(OC)c(OC)c(OC)c2)cc(OC)c1OC", "cat": "Criterion met"}

Input: Given the entry COc1cc(/C=C/C(=O)OCCCCCN(C)CCCCOC(=O)c2cc(OC)c(OC)c(OC)c2)cc(OC)c1OC , would its reported IC50 be below 70 nM?
Output: Criterion not met

Input: Given the entry COc1cc(/C=C/C(=O)OCCCCN(C)CCCCCOC(=O)c2c3ccccc3cc3ccccc23)cc(OC)c1OC , would its reported IC50 be below 70 nM?
Output: Criterion met

Input: Given the entry COc1cc(/C=C/C(=O)OCCCCCCN(C)CCOC(=O)c2cc(OC)c(OC)c(OC)c2)cc(OC)c1OC , would its reported IC50 be below 70 nM?
Output: Criterion not met

Input: Given the entry COc1cc(/C=C/C(=O)OCCCN(C)CCCCCCCOC(=O)c2c3ccccc3cc3ccccc23)cc(OC)c1OC , would its reported IC50 be below 70 nM?
Output: Criterion met

Input: Given the entry COc1cc(/C=C/C(=O)OCCCCCCN(C)CCCCOC(=O)c2c3ccccc3cc3ccccc23)cc(OC)c1OC , would its reported IC50 be below 70 nM?
Output: Criterion met

Input: Given the entry COc1cc(/C=C/C(=O)OCCCCCCCCN(C)CCOC(=O)c2c3ccccc3cc3ccccc23)cc(OC)c1OC , would its reported IC50 be below 70 nM?
Output: Criterion met

Input: Given the entry COc1cc(/C=C/C(=O)OCCCN(C)CCCCCCOC(=O)c2cc(OC)c(OC)c(OC)c2)cc(OC)c1OC , would its reported IC50 be below 70 nM?
Output: Criterion not met

Input: Given the entry COc1cc(/C=C/C(=O)OCCCCCCCN(C)CCOC(=O)c2c3ccccc3cc3ccccc23)cc(OC)c1OC , would its reported IC50 be below 70 nM?
Output: Criterion met

Input: Given the entry COc1cc(/C=C/C(=O)OCCN(C)CCCCCCOC(=O)c2cc(OC)c(OC)c(OC)c2)cc(OC)c1OC , would its reported IC50 be below 70 nM?
Output: Criterion not met

Input: Given the entry COc1cc(/C=C/C(=O)OCCCCN(C)CCCCCOC(=O)c2cc(OC)c(OC)c(OC)c2)cc(OC)c1OC , would its reported IC50 be below 70 nM?
Output: Criterion not met

Input: Given the entry COc1cc(/C=C/C(=O)OCCN(C)CCCCCCCCOC(=O)c2cc(OC)c(OC)c(OC)c2)cc(OC)c1OC , would its reported IC50 be below 70 nM?
Output: Criterion met

Input: Given the entry COc1cc(/C=C/C(=O)OCCCCN(C)CCCCCCOC(=O)c2c3ccccc3cc3ccccc23)cc(OC)c1OC , would its reported IC50 be below 70 nM?
Output: Criterion met

Input: Given the entry COc1cc(/C=C/C(=O)OCCCN(C)CCCCCCCOC(=O)c2cc(OC)c(OC)c(OC)c2)cc(OC)c1OC , would its reported IC50 be below 70 nM?
Output: Criterion not met

Input: Given the entry COc1cc(/C=C/C(=O)OCCCCCCCN(C)CCOC(=O)c2cc(OC)c(OC)c(OC)c2)cc(OC)c1OC , would its reported IC50 be below 70 nM?
Output: Criterion met

Input: Given the entry COc1cc(/C=C/C(=O)OCCN(C)CCCCCCOC(=O)c2c3ccccc3cc3ccccc23)cc(OC)c1OC , would its reported IC50 be below 70 nM?
Output: Criterion not met

Input: Given the entry COc1cc(/C=C/C(=O)OCCN(C)CCCCCCCOC(=O)c2c3ccccc3cc3ccccc23)cc(OC)c1OC , would its reported IC50 be below 70 nM?
Output: Criterion not met
